Listed here are variants together with their documented folding stability dG.
B1: EEHEE_rd4_0469 (parent)
chain: ITIHVNGVTYHFDNPEEAEKFAQKMAKTYQLKMEIHNGEFHME

variants of: B1; assay: folding stability dG (cDNA display proteolysis); higher = more stable; conditions: PBS, room temperature
Note: unit kcal/mol is implicit; provide only the numeric part.

Field: example entries. Status: answers known.
variant_key	unit_descriptor	folding stability dG
K24W	kcal/mol	2.29
N37V	kcal/mol	0.9
M33K	kcal/mol	-0.407
E34N	kcal/mol	1.06
I1C	kcal/mol	1.65

Prompt: Could you please provide reported folding stability dG for Y29P ? Thanks!
Completion: 1.7
